Tested on: UACC-62 melanoma
Test: NCI tumour cell line growth inhibition, 48 h
Assign TGI to each entry below.

Here is how some compounds turned out for TGI.
COc1ccc(C2CC(c3ccc(OC)cc3O)=NN2c2ccc(S(N)(=O)=O)cc2)cc1 (stereo not given): > 100 µM
COc1cc2c(/C=C3/C(=O)Nc4ccc(O)cc43)c(Cl)n(Cc3cc(OC)c(OC)c(OC)c3)c2cc1C: 8.56 µM
CNS(=O)(=O)NNS(=O)(=O)c1ccc(F)cc1: > 100 µM
COc1ccc(C2=NN(C(C)=O)C(c3ccc(Oc4ccnc5cc(Cl)ccc45)c(OC)c3)C2)cc1 (stereo not given): > 100 µM

Please turn your attention to the following entry.
// sample CO/N=C(/C(=O)Nc1c[n+](CC(=O)[O-])cs1)c1csc(N)n1 , its TGI was > 100 µM

* * *

Test system: DU-145 prostate
Assay: NCI tumour cell line growth inhibition, 48 h; in the data active = GI50 below about 0.43 µM; inactive = the rest
Allowed answers: TRUE for active, FALSE for inactive

A selection of reference data follows.
FC(F)(F)c1cc(NC(=S)N2c3ccccc3-n3cccc3C2c2cccnc2)cc(C(F)(F)F)c1 (configuration not stated): FALSE
CCc1cccc(NC(=O)Nc2ccc(Oc3ccc4nc(NC(=O)OC)[nH]c4c3)cc2)c1: FALSE
CC1(C)N=c2cc3c(cc2N1c1ccc(Cl)cc1)=Nc1ccccc1N3c1ccc(Cl)cc1: FALSE
CCN(CC)CCn1c(=O)c2cc(OC)c(OC)cc2c2ccc3cc4c(cc3c21)OCO4: TRUE

(Q) Hey, what did the test say about CCn1c(SCC(=O)Nc2cc(C(F)(F)F)ccc2Cl)nc2ccccc2c1=O ?
(A) FALSE

(Q) Kindly provide the recorded test outcome for the following compound: COC(=O)C1=C(C(=O)ON)[C@@H]2C=C[C@@]1([C@@H](Cc1ccccc1)Nc1ccccc1)O2
(A) FALSE

(Q) Test call for this compound, please: COc1ccc(-c2cc(-c3ccc(OC)cc3)nc(NCCCNc3ccnc4cc(Cl)ccc34)n2)cc1
(A) FALSE

(Q) Record lookup: outcome of this test for O=C(Nc1n[nH]c2nc(-c3ccc(O)cc3)c(Br)cc12)C1CC1 ?
(A) FALSE

(Q) Which outcome was entered for the compound O=C(CCCC(=O)N/N=C/c1cc(Cl)ccc1O)N/N=C\c1cc(Cl)ccc1O in this test?
(A) FALSE

(Q) Query: recorded result category for COc1ccc(CNCCCN2C(=O)c3ccc4c5c(ccc(c35)C2=O)C(=O)N(CCCNCc2ccc(OC)c(OC)c2OC)C4=O)c(OC)c1OC in this test
(A) TRUE

(Q) Please share the test call associated with COc1ccc(C2=NN(C(C)=O)C(c3ccc(Oc4ccnc5cc(Cl)ccc45)c(OC)c3)C2)cc1 (configuration not stated) .
(A) FALSE

(Q) Each compound tested received a call. Report the one for C#Cc1cccc(NC(=O)c2cccc(NC(=O)CCl)c2)c1 .
(A) FALSE

* * *

Exercise: for every item that follows, state its recorded GI50.
Test system: SN12C renal
Experiment: NCI tumour cell line growth inhibition, 48 h

Known GI50 results, listed for orientation:
COc1cc2c(/C=C3/C(=O)Nc4ccc(O)cc43)c(Cl)n(Cc3cc(OC)c(OC)c(OC)c3)c2cc1C: 4.14 µM
COC(=O)C1=C(C(=O)ON)[C@@H]2C=C[C@@]1([C@@H](Cc1ccccc1)Nc1ccccc1)O2: 1.87 µM
COc1cc2c(cc1O)c(=O)n(CCN(C)C)c1c3cc4c(cc3ncc21)OCO4: < 0.01 µM
CCOC(=O)c1c2c(n3ccc(NC(=O)CCN4CCCCC4)cc13)C(=O)c1ncccc1C2=O: 0.111 µM

Dear reader, for each entry below, please note its GI50.
1. CC1OC(CC(=O)O)Cc2c1c(O)c1c(O)cc(-c3cc(=O)c4c(=O)c5c(c(=O)c=4c3=O)CC(CC(=O)O)OC5C)c(O)c1c2O (centres undefined)
2. CCN(CCO)CCCC(C)Nc1ccnc2cc(Cl)ccc12 (centres undefined)
3. C#Cc1cccc(NC(=O)c2cccc(NC(=O)CCl)c2)c1
4. S=C1SCN(Cc2ccccc2)CN1Cc1ccccc1
5. COc1ccc(-c2oc3c(OC)c(OC)c(OC)c(O)c3c(=O)c2OC)cc1O

(A)
29.2 µM
> 100 µM
14.9 µM
5.01 µM
< 0.01 µM

* * *

Test system: HOP-92 NSCLC
Assay: NCI tumour cell line growth inhibition, 48 h
Peptide text beside a SMILES is read from it. * marks the point of attachment. X34 = O=C(c1ccc(-c2ccc(Cl)cc2Cl)o1)*
parameter: TGI

O=C(Nc1n[nH]c2nc(-c3ccc(O)cc3)c(Br)cc12)C1CC1: 18.3 µM
c1cc(C2=NCCO2)c2ccsc2c1: > 100 µM
O=C(Nc1ccccc1)c1cc(S(=O)(=O)N2CCNC2=O)c(S)cc1Cl: > 100 µM
COC(=O)N/N=C(\C)CC(=O)Nc1cccc([N+](=O)[O-])c1: > 100 µM
CSc1ccc2c(cc1=O)C(NC(=O)c1ccccc1)CCc1cc(O)c(O)c(O)c1-2 (centres undefined): 38.5 µM

For each listed entry, give its TGI.
1. CCc1cccc(C(C)CC)c1NC(=O)C(=O)Cc1nc2ccccc2o1 (centres undefined)
2. COc1ccc2nc3cc([N+](=O)[O-])ccc3c(Nc3ccc(S(=O)(=O)Nc4ncccn4)cc3)c2c1
3. S=C1SCN(Cc2ccccc2)CN1Cc1ccccc1

(A)
["> 50 µM", "> 100 µM", "13.8 µM"]

Batch request: TGI per item, same order as input.
1. CN(C)c1ccc(C2CC(=O)CC(c3ccc(N(C)C)cc3)C23C(=O)NC(=S)NC3=O)cc1 (centres undefined)
2. Cc1c[nH]c(=O)n(Cc2nnc(CCC(=O)c3nc4ccccc4[nH]3)o2)c1=O
3. CN(C)/C=C/c1c2c(nc3ccccc13)C(=O)c1cccnc1C2=O
4. Cc1[nH]c2ccccc2c1C1=NO/C(=N\O)C(c2c(C)[nH]c3ccccc23)C1 (centres undefined)
5. O=C1CCCCN1

(A)
1. > 100 µM
2. > 100 µM
3. 11.5 µM
4. > 78.5 µM
5. > 1120 µM

Give TGI for each listed item.
1. O=c1c(C(c2ccc([N+](=O)[O-])cc2)c2c(O)c3ccccc3n(-c3ccccc3)c2=O)c(O)c2ccccc2n1-c1ccccc1
2. CN(C)CCN(C)C(=O)c1cccc2cccc(C(=O)O)c12
3. COC(=O)C(CC(C)C)NC(=O)C(Cc1ccccc1)NC(=O)C1CCCN1C(=O)C(CO)NC(=O)c1ccc(-c2ccc(Cl)cc2Cl)o1 (centres undefined) (X34-SPFL-OMe; configuration not given here)
4. COc1ccccc1NC(=O)C1=C(C)NC(C)=C(C(=O)Nc2ccccc2OC)C1c1ccccc1Cl
5. COc1ccc2c(=O)c3c([nH]c2c1)OCC3=O

(A)
1. 29.3 µM
2. > 100 µM
3. 63.9 µM
4. > 100 µM
5. > 100 µM

Look at each compound and report its TGI.
1. O=C1CCC2(CC1CCS(=O)c1ccccc1)OCCO2 (centres undefined)
2. CN1c2c(nc(N)[nH]c2=O)NCC1CCNc1ccc(C(=O)NC(CCC(=O)O)C(=O)O)cc1 (centres undefined)

(A)
> 100 µM
2900 µM

* * *

Tested on: CAKI-1 renal
Test: NCI tumour cell line growth inhibition, 48 h
Consider the following compounds; for each one, report its TGI.

Worked examples, 9 compounds total:
CCCCC(=O)c1c(O)ccc2c(C)cc(=O)oc12: > 100 µM
O=S1(=O)c2cc(S(=O)(=O)n3ccnc3)ccc2NC2=NCCCN21: > 100 µM
CC(=O)NCc1c(C(N)=O)ncn1Cc1ccccc1: > 100 µM
COc1cc(NC(C)=O)ccc1C(=O)N/N=C/c1ccco1: > 100 µM
FC(F)(F)c1cc(NC(=S)N2c3ccccc3-n3cccc3C2c2cccnc2)cc(C(F)(F)F)c1 (stereo not given): 21.7 µM
CCn1c(SCC(=O)Nc2cc(C(F)(F)F)ccc2Cl)nc2ccccc2c1=O: > 100 µM
COc1ccccc1NC(=O)C1=C(C)NC(C)=C(C(=O)Nc2ccccc2OC)C1c1ccccc1Cl: > 100 µM
CC[O-].CC[O-].O=C([CH-]C(=O)c1ccccc1)CCCCCCC(=O)[CH-]C(=O)c1ccccc1.[Ti+4]: > 100 µM
Fc1ccc(-c2ncn(CCCN3CCOCC3)c2-c2ccncc2)cc1: > 25 µM

Turning to the following compound.
response.value for COc1ccc(C2=NN(C(C)=O)C(c3ccc(Oc4ccnc5cc(Cl)ccc45)c(OC)c3)C2)cc1 (stereo not given) (field: TGI) = > 100 µM

* * *

System: HCT-15 colon
Assay: NCI tumour cell line growth inhibition, 48 h
parameter: TGI

Give one value of TGI per listed molecule.
1. O=c1c(C(c2ccc([N+](=O)[O-])cc2)c2c(O)c3ccccc3n(-c3ccccc3)c2=O)c(O)c2ccccc2n1-c1ccccc1
2. CC1=C(SCCO)C(=O)c2ccccc2C1=O
3. Cc1oc2nc(N(C)C)nc(NN)c2c1C
4. COC(=O)C1=C(C(=O)ON)[C@@H]2C=C[C@@]1([C@@H](Cc1ccccc1)Nc1ccccc1)O2
5. Cc1ccc2nc(CN(CCO)CCO)cc(=O)n2c1
6. O=c1oc2cc(O)ccc2c2oc3cc(O)ccc3c12
7. Cc1cccc2c(NCCN(C)C)c3cccc(C(=O)NCCN(C)C)c3nc12

(A)
30.7 µM
25.3 µM
> 100 µM
4.1 µM
> 100 µM
> 125 µM
13.9 µM
